tested on: Phakopsora pachyrhizi (strain containing the amino acid substitution F129L in the mitochondrial cytochrome b protein); assay: Use example 2: protective control of soybean rust on soybeans (PHAKPA P6), inoculation six days after spraying; format: in vivo; settings: % diseased leaf area on soybean, 16 ppm spray, inoculation six days after treatment, untreated controls usually >85 %
experimental.endpoint: PHAKPA Disease level (%) P6 at 16 ppm
Provide only the numeric value, understood in %.

Entry CNC(=O)/C(=N/OC)c1cccc(C)c1CO/N=C(\C)C#Cc1ccc(OC(F)(F)F)cc1 ; PHAKPA Disease level (%) P6 at 16 ppm = 33

Please fill in: PHAKPA Disease level (%) P6 at 16 ppm reported for CNC(=O)/C(=N/OC)c1cccc(C)c1CO/N=C(\C)C#Cc1cccc(F)c1 = 1

CNC(=O)/C(=N/OC)c1ccccc1CO/N=C(\C)C#Cc1ccc(Cl)cc1-c1ccc(F)cc1 yielded PHAKPA Disease level (%) P6 at 16 ppm of 1
